Attribution: ChEMBL document CHEMBL1938330

test: Cytotoxicity against human Huh7.5 cells after 96 hrs by MTT assay; type: cell-based, Huh-7
The entries below are paired with their reported CC50 at 96 h.
Hi! Could you send only the number? It should be in µM, unit omitted.

Illustrative cases are given below, each with its answer.
smiles entry	measurement units	CC50 at 96 h
O=C(O[C@@H]1O[C@@H]2COC(=O)c3cc(O)c(O)c4oc5c(O)c(O)cc(c5c34)C(=O)O[C@@H]3[C@H]1OC(=O)c1cc(O)c(O)c4c1[C@@H]1[C@@]5(C[C@]6(O)OC[C@@H](O)[C@@H]6O[C@@H]5C(O)(O)C(O)(O)[C@]1(O)O4)C(=O)O[C@@H]32)c1cc(O)c(O)c(O)c1	µM	56.2
O=C1O[C@H]2[C@@H]3OC(=O)c4cc(O)c(O)c(O)c4-c4c(cc(O)c(O)c4O)C(=O)OC[C@H]2O[C@@H](OC(=O)c2cc(O)c(O)c(O)c2)[C@@H]3OC(=O)c2cc(O)c(O)c3c2[C@@H]2C1=CC(=O)[C@](O)(O3)C2(O)O	µM	63.4
O=C(O)C[C@@H]1C(=O)O[C@H]2[C@@H]3OC(=O)c4cc(O)c(O)c(O)c4-c4c(cc(O)c(O)c4O)C(=O)OC[C@H]2O[C@@H](OC(=O)c2cc(O)c(O)c(O)c2)[C@@H]3OC(=O)c2cc(O)c(O)c3c2[C@H]1[C@H](O)C(=O)O3	µM	105

Consider the additional compound presented here.
Measured CC50 at 96 h of "O=C(O[C@@H]1O[C@@H]2COC(=O)c3cc(O)c(O)c(O)c3-c3c(cc(O)c(O)c3O)C(=O)O[C@H]([C@H]1O)[C@@H]2O)c1cc(O)c(O)c(O)c1" : 96.7
